# Tested on: chicken embryo fibroblasts cell line SL-29 (ATCC CRL1590)
# ASSAY PROTOCOL: MTT cytotoxicity assay, 48 h exposure
# Type: cell-based, Gallus gallus
# ASSAY SETUP: Gallus gallus, Fibroblast, 48 h
pIC50: −log10 of the molar value.
PROPERTY NAME: pIC50

| COMPOUND | NUMBER |
| --- | --- |
| C[C@@H]1Cc2c(Cl)cc(C(=O)N[C@@H](Cc3ccccc3)C(=O)O)c(O)c2C(=O)O1 [OTA, ochratoxin A] | 6.62 |

====

# System: chicken embryo fibroblasts cell line SL-29 (ATCC CRL1590)
# ASSAY PROTOCOL: MTT cytotoxicity assay, 48 h exposure
# Assay type: cell-based, Gallus gallus
# ASSAY SETUP: MTT reduction, SL-29 cells, 48 h exposure

| MOLECULE | IC50, µM |
| --- | --- |
| C[C@@H]1Cc2ccc(C(=O)N[C@@H](Cc3ccccc3)C(=O)O)c(O)c2C(=O)O1 [OTB, ochratoxin B] | 7.96 |
| C[C@@H]1Cc2c(Cl)cc(C(=O)N[C@H](Cc3ccccc3)C(=O)O)c(O)c2C(=O)O1 [2’R-OTA, 2’R-ochratoxin A] | 6.54 |
| C[C@@H]1Cc2c(Cl)cc(C(=O)O)c(O)c2C(=O)O1 [OTα, α-ochratoxin] | 5.26 |
